I'd appreciate it if you could supply EC50/EC50 3x(SO3)Y values for the items below.
# target of assay: T1, Biotin sY48 PSGL-1(42-62) peptide (human, sulfotyrosine at Y48; C-terminal Lys-biotin)
# T1 construct: also called sY48S
# T1 peptide: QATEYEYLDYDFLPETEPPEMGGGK
# method summary: capture ELISA; against 3 x sY peptide

Use these answered entries as a reference point.
binder | EC50/EC50 3x(SO3)Y
03D07 (antibody, IgG4, V domains shown) VH: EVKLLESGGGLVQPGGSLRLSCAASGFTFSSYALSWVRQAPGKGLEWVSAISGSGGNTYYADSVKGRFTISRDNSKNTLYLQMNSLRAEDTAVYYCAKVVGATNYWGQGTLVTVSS VL: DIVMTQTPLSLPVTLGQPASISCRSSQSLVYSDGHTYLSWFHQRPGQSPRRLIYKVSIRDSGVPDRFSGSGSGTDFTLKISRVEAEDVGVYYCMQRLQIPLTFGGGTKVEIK | > 100 fold
20I15 (antibody, V domains shown, From mouse immunisation; only variable domains given; also called 20115) VH: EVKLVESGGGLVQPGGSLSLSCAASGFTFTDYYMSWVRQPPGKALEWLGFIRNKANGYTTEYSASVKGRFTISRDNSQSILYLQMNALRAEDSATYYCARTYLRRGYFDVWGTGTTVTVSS VL: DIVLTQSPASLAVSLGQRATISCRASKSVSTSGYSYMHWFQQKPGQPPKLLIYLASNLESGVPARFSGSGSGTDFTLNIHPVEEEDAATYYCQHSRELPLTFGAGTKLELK | ~10 fold

Quick check: EC50/EC50 3x(SO3)Y of PSG3 (antibody, V domains shown, Control anti-PSGL-1 mAb; only variable domains given) VH: QVQLVQSGAEVKKPGSSVRVSCKASGGSFSSYGIHWVQQAPGQGLEWMGRIIPVLRIRNYAQKFHDRVTIDADTSTGTAYMELSSLTSDDTAVYYCAGSRQGVAPTGYWGQGTMVTVSS VL: QAVLTQPSSLSASPGASASLTCNLRSGIDVGTYRIYWYQQKPGSPPQYLLRYKSDSDKQQGSGVPSRFSGTKDASANAGILLISGLQSEDEADYYCMIWHSNGWVFGGGTKLTVL ?
~6 fold
